Listed below: PB8.8, percent compound remaining values for each entry.
- assay_protocol: stability in phosphate buffer with different pHs
- Format: physicochemical
- condition_context: phosphate buffer pH 8.8, after 24 h

{"columns": ["molecule", "scale_unit", "PB8.8, percent compound remaining"],
 "data": [
  ["CCNC(=O)COc1cccc(N2CCC(=O)NC2=O)c1C [Compound 10]", "%", 95],
  ["Nc1cccc2c1CN(C1CCC(=O)NC1=O)C2=O (centres unmarked) [Lenalidomide, lenalidomide, reference compound]", "%", 0],
  ["Cc1c(OCC(=O)N2CCCCC2)cccc1N1CCC(=O)NC1=O [Compound 9]", "%", 95],
  ["Cc1c(C#CCNC(=O)OC(C)(C)C)cccc1N1CCC(=O)NC1=O [Compound 6F]", "%", 93],
  ["CC(=O)NCCC#Cc1cccc(N2CCC(=O)NC2=O)c1C [Compound 11]", "%", 90]
]}

---

- assay_protocol: stability in phosphate buffer with different pHs
- Assay type: physicochemical
- condition_context: phosphate buffer pH 7.4, after 24 h, 37° C.

{"columns": ["compound", "PB7.4, percent compound remaining"],
 "data": [
  ["Nc1cccc2c1CN(C1CCC(=O)NC1=O)C2=O (centres unmarked) [Lenalidomide, lenalidomide, reference compound]", "39%"],
  ["Cc1c(OCC(=O)N2CCCCC2)cccc1N1CCC(=O)NC1=O [Compound 9]", ">99%"],
  ["CCNC(=O)COc1cccc(N2CCC(=O)NC2=O)c1C [Compound 10]", ">99%"],
  ["Cc1c(C#CCNC(=O)OC(C)(C)C)cccc1N1CCC(=O)NC1=O [Compound 6F]", ">99%"],
  ["CC(=O)NCCC#Cc1cccc(N2CCC(=O)NC2=O)c1C [Compound 11]", ">99%"]
]}

---

Recorded binding to CRBN-DDB1 complex in FP assay (relative binding affinity) values for a group of compounds are listed next.
- target_desc: CRBN-DDB1 complex (Homo sapiens)
- Sequence (Q96SW2 whole entry): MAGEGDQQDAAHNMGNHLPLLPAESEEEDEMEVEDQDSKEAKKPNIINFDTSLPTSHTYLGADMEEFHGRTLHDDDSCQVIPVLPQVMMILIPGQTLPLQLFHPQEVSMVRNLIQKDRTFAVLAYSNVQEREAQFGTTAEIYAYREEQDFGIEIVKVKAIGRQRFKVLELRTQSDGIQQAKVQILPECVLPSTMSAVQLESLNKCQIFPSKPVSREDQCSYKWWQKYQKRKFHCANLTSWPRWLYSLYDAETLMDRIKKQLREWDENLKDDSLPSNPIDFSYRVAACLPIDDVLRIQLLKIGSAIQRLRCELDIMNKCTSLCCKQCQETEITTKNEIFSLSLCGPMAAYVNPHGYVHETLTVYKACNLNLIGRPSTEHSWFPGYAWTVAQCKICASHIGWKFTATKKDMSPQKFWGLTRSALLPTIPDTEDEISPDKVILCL
- Sequence (Q16531 2-1140 partner limits assumed): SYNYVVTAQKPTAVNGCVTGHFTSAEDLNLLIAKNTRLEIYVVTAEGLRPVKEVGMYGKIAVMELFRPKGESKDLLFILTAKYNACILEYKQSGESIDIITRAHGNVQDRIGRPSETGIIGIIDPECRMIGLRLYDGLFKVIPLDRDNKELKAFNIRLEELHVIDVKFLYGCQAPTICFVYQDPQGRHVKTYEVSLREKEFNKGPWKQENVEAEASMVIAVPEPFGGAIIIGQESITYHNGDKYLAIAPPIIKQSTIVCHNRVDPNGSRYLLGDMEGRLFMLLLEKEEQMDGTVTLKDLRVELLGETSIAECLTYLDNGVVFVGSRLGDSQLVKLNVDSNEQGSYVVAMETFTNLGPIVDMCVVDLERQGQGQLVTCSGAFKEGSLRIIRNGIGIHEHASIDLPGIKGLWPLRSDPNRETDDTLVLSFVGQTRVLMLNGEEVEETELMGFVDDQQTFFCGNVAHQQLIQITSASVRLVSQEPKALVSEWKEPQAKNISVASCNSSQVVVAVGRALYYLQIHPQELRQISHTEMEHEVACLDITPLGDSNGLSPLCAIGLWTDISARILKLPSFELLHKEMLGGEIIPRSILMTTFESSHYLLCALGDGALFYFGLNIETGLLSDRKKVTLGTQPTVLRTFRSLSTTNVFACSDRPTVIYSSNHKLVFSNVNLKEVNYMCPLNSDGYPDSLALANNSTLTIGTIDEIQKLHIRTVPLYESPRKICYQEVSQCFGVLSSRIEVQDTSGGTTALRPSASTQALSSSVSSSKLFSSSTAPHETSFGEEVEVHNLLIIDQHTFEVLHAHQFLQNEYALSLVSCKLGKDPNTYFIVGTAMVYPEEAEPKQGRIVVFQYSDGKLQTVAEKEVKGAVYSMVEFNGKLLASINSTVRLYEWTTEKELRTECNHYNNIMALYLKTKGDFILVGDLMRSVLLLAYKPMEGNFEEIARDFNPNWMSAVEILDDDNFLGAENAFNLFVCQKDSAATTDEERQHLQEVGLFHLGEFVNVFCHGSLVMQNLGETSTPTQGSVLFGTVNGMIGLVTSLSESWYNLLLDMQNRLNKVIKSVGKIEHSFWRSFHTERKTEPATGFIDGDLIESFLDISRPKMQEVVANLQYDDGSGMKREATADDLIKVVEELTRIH
- assay_protocol: fluorescence polarization (FP) assay, binding with the CRBN-DDB1 complex
- condition_context: single concentration of 1 μM, tested three times; conditions adjusted to around 84% of maximum signal for 1 μM lenalidomide
endpoint: binding to CRBN-DDB1 complex in FP assay (relative binding affinity)

{"columns": ["compound", "result"],
 "data": [
  ["CCc1ccccc1N1CCC(=O)NC1=O", "29%"],
  ["Cc1c(Oc2ccc(C=O)cc2)cccc1N1CCC(=O)NC1=O [Compound 15C]", "21%"],
  ["COc1cccc(N2CCC(=O)NC2=O)c1", "33%"],
  ["Cc1ccc(Oc2ccc(C=O)cc2)cc1N1CCC(=O)NC1=O [Compound 15A]", "70%"],
  ["CC(C)(C)OC(=O)NCC#Cc1cccc(N2CCC(=O)NC2=O)c1", "56%"],
  ["CC(C)(C)OC(=O)COc1cccc(N2CCC(=O)NC2=O)c1", "44%"],
  ["Cc1ccccc1N1CCC(=O)NC1=O", "35%"],
  ["O=Cc1ccc(Oc2cccc(N3CCC(=O)NC3=O)c2)cc1 [Compound 15B]", "33%"],
  ["O=C1CCN(c2cccc(O)c2)C(=O)N1", "57%"],
  ["O=C1CCN(c2ccccc2Cl)C(=O)N1", "36%"],
  ["Cc1ccc(O)cc1N1CCC(=O)NC1=O", "81%"],
  ["O=C1CCN(c2ccc(O)cc2)C(=O)N1", "38%"]
]}
